Study target: T1, FZD9 cysteine-rich domain (CRD), MYC-tagged and GPI-anchored on CHO cells (human, UniProt O00144 35-161, GPI anchor)
T1 construct: also called FZD9 CRD; CHO-myc-FZDGPI; not shown: MYC tag and GPI anchor signal
T1 sequence: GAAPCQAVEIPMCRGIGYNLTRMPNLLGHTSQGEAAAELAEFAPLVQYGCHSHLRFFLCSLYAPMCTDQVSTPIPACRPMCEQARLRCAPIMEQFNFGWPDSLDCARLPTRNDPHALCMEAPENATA
Experimental details: immunofluorescence, CHO-CRD cells
Measured quantity: binding result

binder="Fab-2923 (Fab, V domains shown, Fab; also called Fv-2923) VH: EVQLVESGGGLVQPGGSLRLSCAASGFNLYYYYMHWVRQAPGKGLEWVASIYSSSGSTSYADSVKGRFTISADTSKNTAYLQMNSLRAEDTAVYYCARGAMDYWGQGTLVTVSS VL: DIQMTQSPSSLSASVGDRVTITCRASQSVSSAVAWYQQKPGKAPKLLIYSASSLYSGVPSRFSGSRSGTDFTLTISSLQPEDFATYYCQQWYGYSALITFGQGTKVEIK" measured_quantity="binding result" assay_result="no binding"
binder="Fab-2911 (Fab, V domains shown, Fab; also called Fv-2911) VH: EVQLVESGGGLVQPGGSLRLSCAASGFNIYYSSMHWVRQAPGKGLEWVAYIYPYSGYTSYADSVKGRFTISADTSKNTAYLQMNSLRAEDTAVYYCARYFWWYGFDYWGQGTLVTVSS VL: DIQMTQSPSSLSASVGDRVTITCRASQSVSSAVAWYQQKPGKAPKLLIYSASSLYSGVPSRFSGSRSGTDFTLTISSLQPEDFATYYCQQGPWYPFTFGQGTKVEIK" measured_quantity="binding result" assay_result="no binding"
